target_entity: human TREM2 (Homo sapiens)
Construct: expressed in transfected cells; host or cells: HEK293T (HEK293T-hTREM2 cells)
Sequence (Q9NZC2 19-230): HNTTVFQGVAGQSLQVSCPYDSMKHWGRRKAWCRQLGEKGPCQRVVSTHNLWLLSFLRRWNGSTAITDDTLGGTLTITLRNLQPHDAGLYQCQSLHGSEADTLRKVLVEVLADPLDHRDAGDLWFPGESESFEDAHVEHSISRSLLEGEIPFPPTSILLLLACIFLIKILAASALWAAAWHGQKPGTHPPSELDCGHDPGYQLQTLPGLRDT
Sequence (O43914 22-113 partner): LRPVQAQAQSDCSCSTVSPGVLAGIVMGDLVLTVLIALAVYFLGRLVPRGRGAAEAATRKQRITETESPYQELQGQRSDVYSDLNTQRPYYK
assay_remarks: TREM2 agonist potency by cellular phosphorylation of Spleen Tyrosine Kinase (Syk), AlphaLisa, HEK293T-hTREM2 cells
Assay type: cell-based
test_conditions: hTREM2 EC50 Data (HEK293 Cells); Syk phosphorylation, AlphaLisa; read-out: hTREM2 EC50
pEC50: −log10 of the molar value.
observed_property: pEC50

// solved cases for pEC50 follow
[2H]C([2H])([2H])n1cc([C@H]2CN(c3nc(C45CC(C(F)(F)F)(C4)C5)c4nc(C)c(C)nc4n3)C[C@@H](C)O2)ccc1=O	> 7.00
Cc1nc2nc(N3CCC(F)(F)C(c4ccc(=O)n(C)c4)C3)nc(-c3ccc(F)cc3F)c2nc1C (stereo not shown)	> 7.00
Cc1nc2nc([C@H]3CCO[C@@H](c4ccc(=O)n(C)c4)C3)nc(C3CCC(F)(F)CC3)c2nc1C	> 7.00

Next, consider the following compound.
// fetch human TREM2 (Homo sapiens) pEC50 for Cc1nc2nc([C@H]3CCO[C@@H](c4ccc(=O)n(N)c4)C3)nc(C34CC(C(F)(F)F)(C3)C4)c2cc1C(F)(F)F
> 7.00

* * *

Examples of molecules with documented EC50 follow.
target_entity: human TREM2 (Homo sapiens)
Construct: expressed in transfected cells; host or cells: HEK293T (HEK293T-hTREM2 cells)
assay_remarks: TREM2 agonist potency by cellular phosphorylation of Spleen Tyrosine Kinase (Syk), AlphaLisa, HEK293T-hTREM2 cells
Format: cell-based
test_conditions: hTREM2 EC50 Data (HEK293 Cells); Syk phosphorylation, AlphaLisa; read-out: hTREM2 EC50

Previously resolved entries follow.
COc1nc2c(-c3ccc(C(F)(F)F)cc3F)nc([C@H]3CCO[C@@H](c4ccc(=O)n(C)c4)C3)nc2nc1C	< 100 nM
Cc1nc2nc([C@H]3CCO[C@@H](c4ccc(=O)n(-c5cnco5)c4)C3)nc(C34CC(C(F)(F)F)(C3)C4)c2nc1C	< 100 nM
Cc1nc2nc([C@H]3CCO[C@@H](c4ccc(=O)n(-c5csc(C6CC6)c5)c4)C3)nc(C34CC(C(F)(F)F)(C3)C4)c2nc1C	< 100 nM

Query (molecule): Cc1nc2nc([C@H]3CCO[C@@H](c4ccc(=O)n(C)c4)C3)nc(C34CC(Cl)(C3)C4)c2nc1C (single isomer, unassigned) ; field requested: EC50
< 100 nM

And the next one, Cc1nc2cc(N3C[C@@H](C)O[C@@H](c4ccc(=O)[nH]c4)C3)nc(-c3ccc(F)cc3F)c2nc1C ?
100 to 500 nM

Moving on to the next molecule: Cc1nc(-n2cc([C@H]3C[C@@H](c4nc(C56CC(C(F)(F)F)(C5)C6)c5nc(C)c(C)nc5n4)CCO3)ccc2=O)cs1
< 100 nM

* * *

Each entry below carries its recorded pEC50.
target_entity: human TREM2 (Homo sapiens)
Construct: expressed in transfected cells; host or cells: HEK293T (HEK293T-hTREM2 cells)
assay_remarks: TREM2 agonist potency by cellular phosphorylation of Spleen Tyrosine Kinase (Syk), AlphaLisa, HEK293T-hTREM2 cells
Format: cell-based
test_conditions: hTREM2 EC50 Data (HEK293 Cells); Syk phosphorylation, AlphaLisa; read-out: hTREM2 EC50
pEC50: −log10 of the molar value.

Example entries and their recorded answers appear below.
CN(C)c1nc2nc([C@H]3CCO[C@@H](c4ccc(=O)n(C)c4)C3)nc(-c3ccc(F)cc3F)c2s1 [Example 13]	6.30 to 7.00
Cc1nc2c(C34CC(C(F)(F)F)(C3)C4)nc([C@H]3CCO[C@@H](c4ccc(=O)n(C)c4)C3)nc2c(=O)n1C (racemic) [Example 217]	> 7.00
Cc1cnc2nc([C@H]3CCO[C@@H](c4ccc(=O)n(C)c4)C3)nc(C34CC(C(F)(F)F)(C3)C4)c2n1 [Example 198]	6.30 to 7.00

Item under review: Cc1nc2nc([C@H]3CCO[C@@H](c4ccc(=O)n(C5CC5)c4)C3)nc(-c3ccc(C(F)(F)F)cc3F)c2nc1C [Example 64] . Reported pEC50?
> 7.00

One more compound: CN(C)c1nc2nc([C@@H]3CCO[C@H](c4ccc(=O)n(C)c4)C3)nc(-c3ccc(F)cc3F)c2s1 [Example 14]
> 7.00

Please do the same for COc1nc2c(C34CC(C(F)(F)F)(C3)C4)nc([C@H]3CCO[C@@H](c4ccc(=O)n(C5CC5)c4)C3)nc2nc1C [Example 142] as well.
> 7.00

What would you report for Cc1nc2cc(C3CCO[C@@H](c4ccc(=O)n(C)c4)C3)nc(-c3ccc(F)cc3F)c2nc1C (stereo partly shown) [Example 194] ?
6.30 to 7.00

Ok, now Cc1nc2nc([C@@H]3CCO[C@H](c4ccc(=O)n(C)c4)C3)nc(-c3ccc(F)cc3F)c2nc1C [Example 2]
< 6.30
